- SYSTEM UNDER TEST: T1, CRBN, Q96SW2;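 also: pooled lentiviral library of zinc finger degron-EGFP fusions in mCherry-positive Jurkat cells, FACS-sorted after compound exposure, with degron abundance counted by next-generation sequencing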
- T1 chain: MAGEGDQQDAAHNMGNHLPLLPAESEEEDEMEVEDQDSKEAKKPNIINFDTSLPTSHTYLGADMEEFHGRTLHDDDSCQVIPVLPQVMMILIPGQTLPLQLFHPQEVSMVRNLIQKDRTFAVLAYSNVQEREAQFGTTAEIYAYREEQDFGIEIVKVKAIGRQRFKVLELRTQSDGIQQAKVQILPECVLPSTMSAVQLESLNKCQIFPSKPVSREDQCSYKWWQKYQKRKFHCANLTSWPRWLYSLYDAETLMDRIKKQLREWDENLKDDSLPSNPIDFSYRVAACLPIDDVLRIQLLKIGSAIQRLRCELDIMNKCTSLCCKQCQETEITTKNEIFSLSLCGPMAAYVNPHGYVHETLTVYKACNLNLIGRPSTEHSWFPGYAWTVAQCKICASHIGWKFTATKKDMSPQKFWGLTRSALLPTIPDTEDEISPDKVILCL
- ASSAY INFO: log2 fold change of degron read counts, EGFP-low vs EGFP+ sorted cells (limma voom), compound-induced degradation; higher = more compound-induced degradation of the degron-EGFP fusion; degrons are variants of IKZF1/3 zinc finger 2; compound dose not given here
- CONDITION DESCRIPTION: Jurkat; 18 h; compound: compound 19 (5-tert-butyl-thalidomide)
Whole data set: some 8,300 sequences, median “log2 fold change of degron read counts, EGFP-low vs EGFP+ sorted cells (limma voom), compound-induced degradation” near -1.1, cut for the highest 2% near 3.2. The sample holds the highest values, similar sequences and a random draw of the others, so the mix is not that of the screen.
ENDPOINT NAME: log2 fold change of degron read counts
Just the number, please.

seq_text="FTCNQCGAMFTQKGNLLRHIKL [46F_47T_49N_50Q_52G_53A_54M_55F_67L_, Q9UKT9]" readout_number=-2.5
seq_text="FMCEICGASFTQKGNLLRHIKL [46F_47M_49E_50I_52G_53A_54S_55F_67L_, Q9UKT9]" readout_number=1.61
seq_text="LLCNQCGFACTQKGNLLRHIKL [46L_47L_49N_50Q_52G_53F_54A_55C_67L_, Q9UKT9]" readout_number=-2.26

Now for another entry.
Can you look up the measured log2 fold change of degron read counts of FDCSVCGHPFTQKGNLLRHIKL [46F_47D_49S_50V_52G_53H_54P_55F_67L_, Q9UKT9] for me?
-1.84
